System: [Pyruvate dehydrogenase (acetyl-transferring)] kinase isozyme 1, mitochondrial (Homo sapiens)
pIC50: −log10 of the molar value.
Metric: pIC50

Smiles String: CN(C)C(=O)c1ccc(N(Cc2ccccn2)C(=O)c2cc(Cl)c(O)cc2O)cc1
Metric: pIC50
Quantitative Readout: 7.00

(P) O=C(c1ccc(O)cc1O)N(Cc1cccnc1)c1ccc(-c2ncnc3cccc(F)c23)cc1
(Q) O=C(c1ccc(O)cc1O)N(Cc1cccnc1)c1ccc(-c2nc(-c3ccccc3)nc3ccccc23)cc1
Min pIC50? P | Q Pick one and reply with its label. Q
(Q: 6.00, P: 8.00)

(I) Cc1cc2cc(Cl)ccc2nc1-c1ccc(N(Cc2ccsc2)C(=O)c2ccc(O)cc2O)cc1
(II) CN(Cc1ccc(OC(F)(F)F)cc1)C(=O)c1ccc(N(Cc2cccnc2)C(=O)c2ccc(O)cc2O)cc1
Min pIC50? I | II Pick one and reply with its label. I
(I: 6.00, II: 7.00)

====

System: [Pyruvate dehydrogenase (acetyl-transferring)] kinase isozyme 1, mitochondrial (Homo sapiens)
pIC50: −log10 of the molar value.
Metric: pIC50

Smiles String: Cc1nc(C(F)(F)F)nc(-c2ccc(N(Cc3cccnc3)C(=O)c3ccc(O)cc3O)cc2)c1C
pIC50: 8.00
//
Smiles String: Cc1cc(S(=O)(=O)NCc2ccccn2)cnc1-c1ccc(N(Cc2ccccc2)C(=O)c2ccc(O)cc2O)cc1
pIC50: 8.00
//
Smiles String: CN(C)C(=O)c1ccc(N(Cc2ccccc2)C(=O)c2cc(Cl)c(O)cc2O)cc1
pIC50: 8.00
//
Smiles String: Cc1cc(C(=O)Nc2ccc(N(Cc3ccccc3)C(=O)c3ccc(O)cc3O)cc2)no1
pIC50: 5.00
//
Smiles String: O=C(c1ccc(O)cc1O)N(Cc1cccnc1)c1ccc(-c2ccnc3ccsc23)cc1
pIC50: 7.00

(1) Cc1nc(C(F)(F)F)nc(-c2ccc(N(Cc3ccccc3)C(=O)c3ccc(O)cc3O)cc2)c1C
(2) Cc1c(Cl)nc(Cl)nc1-c1ccc(N(Cc2cccnc2)C(=O)c2ccc(O)cc2O)cc1
Min pIC50? 1 | 2 Pick one and reply with its label. 1
(1: 6.00, 2: 8.00)

(P) Cc1cc(N)ncc1-c1ccc(N(Cc2ccccc2)C(=O)c2ccc(O)cc2O)cc1
(Q) O=C(c1ccc(O)cc1O)N(Cc1ccsc1)c1ccc(-c2nc(Cl)nc3c2COCC3)cc1
Min pIC50? P | Q Pick one and reply with its label. P
(P: 6.00, Q: 7.00)

====

# UniProt Q15118: IC50 values follow
Metric: IC50 (nM)

Known IC50 results, listed for orientation:
Smiles String: CN(C)C(=O)c1ccc(N(Cc2ccc(F)cc2)C(=O)c2cc(Cl)c(O)cc2O)cc1
System: UniProt Q15118
Metric: IC50
Unit Of Measure: nM
Quantitative Readout: 100

Smiles String: Cc1cc(S(=O)(=O)NCCCC(N)=O)cnc1-c1ccc(N(Cc2ccccc2)C(=O)c2ccc(O)cc2O)cc1
System: UniProt Q15118
Metric: IC50
Unit Of Measure: nM
Quantitative Readout: 10

(P) Cc1cc(S(=O)(=O)NCc2cccnc2)cnc1-c1ccc(N(Cc2cccnc2)C(=O)c2ccc(O)cc2O)cc1
(Q) Cc1cc2ccccc2nc1-c1ccc(N(Cc2cccc3ccccc23)C(=O)c2ccc(O)cc2O)cc1
Min IC50? P | Q Pick one and reply with its label. P

====

System: [Pyruvate dehydrogenase (acetyl-transferring)] kinase isozyme 1, mitochondrial (Homo sapiens)
Metric: IC50 (nM)

Smiles String: O=C(c1ccc(O)cc1O)N(Cc1cccnc1)c1ccc(-c2cnc3ccccc3n2)cc1
IC50 / nM: 1000
--
Smiles String: Cc1cccnc1-c1ccc(N(Cc2cccnc2)C(=O)c2cc(Cl)c(O)cc2O)cc1
IC50 / nM: 10
--
Smiles String: Cc1cc(N(Cc2ccccc2)C(=O)c2ccc(O)cc2O)ccc1-c1nc(Cl)ncc1C
IC50 / nM: 1000
--
Smiles String: CN(Cc1cccc2cccnc12)C(=O)c1ccc(N(Cc2cccnc2)C(=O)c2ccc(O)cc2O)cc1
IC50 / nM: 100
--
Smiles String: CCOC(=O)c1nc(-c2ccc(N(Cc3cccnc3)C(=O)c3ccc(O)cc3O)cc2)c2ccccc2n1
IC50 / nM: 100
--
Smiles String: CN(C)C(=O)c1ccc(N(Cc2c[nH]cn2)C(=O)c2cc(Cl)c(O)cc2O)cc1
IC50 / nM: 1000

(a) Cc1nc(-c2ccc(N(Cc3ccsc3)C(=O)c3ccc(O)cc3O)cc2)c2ccccc2n1
(b) CN(C)C(=O)c1ccc(N(Cc2cccc(C#N)c2)C(=O)c2cc(Cl)c(O)cc2O)cc1
(c) Cc1cc(S(=O)(=O)NCc2cccnc2)cnc1-c1ccc(N(Cc2ccsc2)C(=O)c2ccc(O)cc2O)cc1
Rank entries according to their IC50, from the largest number down. Form entry: labels listed in requested order. a, b, c

====

System: [Pyruvate dehydrogenase (acetyl-transferring)] kinase isozyme 1, mitochondrial (Homo sapiens)
Experiment Description: Binding affinity to pyruvate dehydrogenase kinase 1 (unknown origin) incubated for 90 mins by VER-00160364 probe based fluorescence polarization assay
pIC50: −log10 of the molar value.
Metric: pIC50

Smiles String: CN(C)C(=O)c1ccc(N(Cc2cccc3c2cnn3C)C(=O)c2ccc(O)cc2O)cc1
Quantitative Readout: 7.00

Smiles String: Cc1cc(S(=O)(=O)N2CC(F)(F)C2)cnc1-c1ccc(N(Cc2cccnc2)C(=O)c2ccc(O)cc2O)cc1
Quantitative Readout: 8.00

Smiles String: Cc1cnc(N(C)C)nc1-c1ccc(N(Cc2ccccc2)C(=O)c2ccc(O)cc2O)cc1
Quantitative Readout: 7.00

Smiles String: O=C(c1ccc(O)cc1O)N(Cc1cccnc1)c1ccc(-c2ccccc2Cl)cc1
Quantitative Readout: 6.00

Smiles String: Cc1ccc(-c2ccc(N(Cc3cccnc3)C(=O)c3ccc(O)cc3O)cc2)c(Cl)c1
Quantitative Readout: 6.00

(P) CN(Cc1cccc2ccccc12)C(=O)c1ccc(N(Cc2cccnc2)C(=O)c2ccc(O)cc2O)cc1
(Q) Cc1cc(-c2ccc(N(Cc3ccccc3)C(=O)c3ccc(O)cc3O)cc2)nnc1Cl
Which one would you say has the larger pIC50 value: P , or Q ? Pick one and reply with its label. P
(P: 8.00, Q: 5.00)

====

System: [Pyruvate dehydrogenase (acetyl-transferring)] kinase isozyme 1, mitochondrial (Homo sapiens, UniProt Q15118)
Sequence (Q15118 whole entry): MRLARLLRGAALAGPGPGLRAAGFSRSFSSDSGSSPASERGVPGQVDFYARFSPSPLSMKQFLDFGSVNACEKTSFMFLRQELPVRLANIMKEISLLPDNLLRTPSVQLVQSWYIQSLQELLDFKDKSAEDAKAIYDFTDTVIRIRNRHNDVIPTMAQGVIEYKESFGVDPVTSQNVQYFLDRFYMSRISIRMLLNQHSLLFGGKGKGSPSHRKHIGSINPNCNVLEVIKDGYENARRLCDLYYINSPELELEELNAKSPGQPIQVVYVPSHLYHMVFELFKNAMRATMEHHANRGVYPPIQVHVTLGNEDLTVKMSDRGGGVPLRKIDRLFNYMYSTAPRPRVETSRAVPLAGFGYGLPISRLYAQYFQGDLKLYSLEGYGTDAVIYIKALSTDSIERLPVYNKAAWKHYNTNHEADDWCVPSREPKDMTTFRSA
Metric: IC50 (µM)

Known IC50 results, listed for orientation:
Smiles String: O=C(c1ccc(O)cc1O)N(Cc1ccccc1)c1ccc(-c2nc(Cl)nn3cccc23)cc1
IC50 [µM]: 1
//
Smiles String: O=C(O)c1nc(-c2ccc(N(Cc3ccccc3)C(=O)c3ccc(O)cc3O)cc2)c2ccccc2n1
IC50 [µM]: 1
//
Smiles String: COc1ccc(-c2ccc(N(Cc3cccnc3)C(=O)c3ccc(O)cc3O)cc2)c(Cl)c1
IC50 [µM]: 1

(A) CN(C)CCN(C)C(=O)c1ccc(N(Cc2ccccc2)C(=O)c2ccc(O)cc2O)cc1
(B) Cc1cc(S(=O)(=O)NCc2ccccc2)cnc1-c1ccc(N(Cc2ccccc2)C(=O)c2ccc(O)cc2O)cc1
Min IC50? A | B Pick one and reply with its label. B

====

System: [Pyruvate dehydrogenase (acetyl-transferring)] kinase isozyme 1, mitochondrial (Homo sapiens, UniProt Q15118)
Metric: IC50 (µM)

(a) Cc1cc2ccccc2nc1-c1ccc(N(Cc2ccc(CN3CCOCC3)cc2)C(=O)c2ccc(O)cc2O)cc1
(b) CN(C)C(=O)c1ccc(N(CCN2CCCCC2)C(=O)c2cc(Cl)c(O)cc2O)cc1
(c) Cc1cc(S(=O)(=O)N2CCCCC2)cnc1-c1ccc(N(Cc2cccnc2)C(=O)c2ccc(O)cc2O)cc1
Form: Sort by [IC50] Order [ ascending ] Form entry: labels listed in requested order. c, b, a

(P) O=C(c1ccc(O)cc1O)N(Cc1cccnc1)c1ccc(-c2nc(Cl)nc3c2COCC3)cc1
(Q) CSc1nc(Cl)cc(-c2ccc(N(Cc3cccnc3)C(=O)c3ccc(O)cc3O)cc2)n1
Min IC50? P | Q Pick one and reply with its label. P

(A) CCc1nccnc1-c1ccc(N(Cc2ccccc2)C(=O)c2ccc(O)cc2O)cc1
(B) CN(Cc1cccc2ccccc12)C(=O)c1ccc(N(Cc2ccccc2)C(=O)c2ccc(O)cc2O)cc1
Which one would you say has the larger IC50 value: A , or B ? Pick one and reply with its label. B
(B: 1 µM, A: 0.1 µM)

====

System: [Pyruvate dehydrogenase (acetyl-transferring)] kinase isozyme 1, mitochondrial (Homo sapiens, UniProt Q15118)
pIC50: −log10 of the molar value.
Metric: pIC50

(P) Cc1cnc(Cl)nc1-c1ccc(N(C(=O)c2ccc(O)cc2O)C(C)c2ccccc2)cc1 (centres undefined)
(Q) Cc1cnc(Cl)nc1-c1ccc(N(Cc2ccccc2)C(=O)c2ccc(O)cc2O)cc1
Which one would you say has the larger pIC50 value: P , or Q ? Pick one and reply with its label. Q
(Q: 8.00, P: 6.00)

(a) COc1ccc(CN(C)C(=O)c2ccc(N(Cc3ccccc3)C(=O)c3ccc(O)cc3O)cc2)cc1
(b) O=C(c1ccc(O)cc1O)N(Cc1cccnc1)c1ccc(-c2ccc(Cl)cc2Cl)cc1
(c) CN(Cc1ccc2ccccc2c1)C(=O)c1ccc(N(Cc2cccnc2)C(=O)c2ccc(O)cc2O)cc1
(d) COc1cc(-c2ccc(N(Cc3ccsc3)C(=O)c3ccc(O)cc3O)cc2)cnc1OC
Rank the items in ascending order with respect to pIC50. Form entry: labels listed in requested order. d, b, a, c
(d: 5.00, b: 6.00, a: 7.00, c: 8.00)

(I) CN(C)C(=O)c1ccc(N(CC2CCCC2)C(=O)c2ccc(O)cc2O)cc1
(II) COc1ccc(CN(C)C(=O)c2ccc(N(Cc3cccnc3)C(=O)c3cc(Cl)c(O)cc3O)cc2)cc1
(III) O=C(c1ccc(O)cc1O)N(Cc1ccccc1)c1ccc(-c2nc(Cl)nc3ccsc23)cc1
Rank the items in ascending order with respect to pIC50. Form entry: labels listed in requested order. III, I, II
